All figures here come from paper PMC3726061.

# target-entity: σ1 receptors (Rattus norvegicus, UniProt Q9R0C9)
# Sequence (Q9R0C9 whole entry): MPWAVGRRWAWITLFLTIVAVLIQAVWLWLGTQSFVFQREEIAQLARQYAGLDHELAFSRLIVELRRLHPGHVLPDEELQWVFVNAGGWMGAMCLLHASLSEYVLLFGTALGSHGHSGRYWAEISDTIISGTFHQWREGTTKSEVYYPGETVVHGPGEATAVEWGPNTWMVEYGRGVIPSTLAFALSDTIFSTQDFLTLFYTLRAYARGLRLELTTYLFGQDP
# procedure-summary: biochemical
pKi: −log10 of the molar value. Structures can show the parent of a compound that is named as a salt.
A collection of molecules and their measured pKi
property: pKi

| molecule | target-entity | endpoint-value |
| --- | --- | --- |
| CN1CCN(CCc2ccc(Cl)c(Cl)c2)CC1 | σ1 receptors (Rattus norvegicus, UniProt Q9R0C9) | 7.82 |
| COc1ccc2c(c1)[C@]13CCCC[C@@H]1[C@H](C2)N(C)CC3 [dextromethorphan, dextromethorphan hydrobromide] | σ1 receptors (Rattus norvegicus, UniProt Q9R0C9) | 6.39 |
| CCCN(CCC)CCc1ccc(OC)c(OCCc2ccccc2)c1 | σ1 receptors (Rattus norvegicus, UniProt Q9R0C9) | 8.55 |
| CC(=O)[C@H]1CC[C@H]2[C@@H]3CCC4=CC(=O)CC[C@]4(C)[C@H]3CC[C@]12C | σ1 receptors (Rattus norvegicus, UniProt Q9R0C9) | 6.63 |

* * *

# target-entity: σ1 receptors (Rattus norvegicus)
# procedure-summary: σ1 competition binding, [3H]
pKi: −log10 of the molar value. Counter-ions that a name gives are not always drawn.
A collection of compounds and their measured pKi
property: pKi

| compound | property | endpoint-value |
| --- | --- | --- |
| CC(=O)[C@H]1CC[C@H]2[C@@H]3CCC4=CC(=O)CC[C@]4(C)[C@H]3CC[C@]12C | pKi | 7.00 |
| CN1CCN(CCc2ccc(Cl)c(Cl)c2)CC1 | pKi | 7.48 |
| COc1ccc2c(c1)[C@]13CCCC[C@@H]1[C@H](C2)N(C)CC3 [dextromethorphan, dextromethorphan hydrobromide] | pKi | 6.67 |
| CCCN(CCC)CCc1ccc(OC)c(OCCc2ccccc2)c1 | pKi | 8.70 |

* * *

# target-entity: UniProtKB Q5U3Y7
# procedure-summary: σ2 competition binding, [3H]DTG with
pKi: −log10 of the molar value. Structures can show the parent of a compound that is named as a salt.
A collection of compounds and their measured pKi
property: pKi

| compound | qualifier-symbol | endpoint-value |
| --- | --- | --- |
| CCCN(CCC)CCc1ccc(OC)c(OCCc2ccccc2)c1 | = | 7.02 |
| COc1ccc2c(c1)[C@]13CCCC[C@@H]1[C@H](C2)N(C)CC3 [dextromethorphan, dextromethorphan hydrobromide] | < | 5.00 |
| CC(=O)[C@H]1CC[C@H]2[C@@H]3CCC4=CC(=O)CC[C@]4(C)[C@H]3CC[C@]12C | < | 5.00 |
| CC(C)=CCN1CC[C@]2(C)c3cc(O)ccc3C[C@H]1[C@H]2C [(+)-pentazocine, (+)-Pentazocine] | = | 5.85 |
| C[C@@H]1CN(CCCn2c3ccccc3c3ccccc32)C[C@H](C)N1 [rimcazole, rimcazole dihydrochloride monohydrate] | = | 5.80 |

* * *

# target-entity: σ2 receptors (Rattus norvegicus)
# Sequence (Q5U3Y7 whole entry): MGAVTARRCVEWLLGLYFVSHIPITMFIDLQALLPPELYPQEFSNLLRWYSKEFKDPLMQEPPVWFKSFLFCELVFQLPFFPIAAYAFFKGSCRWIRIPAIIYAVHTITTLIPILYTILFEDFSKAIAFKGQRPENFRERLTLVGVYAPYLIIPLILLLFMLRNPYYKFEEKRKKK
# procedure-summary: σ2 competition binding, [3H]DTG with
Structures can show the parent of a compound that is named as a salt.
property: Ki (nM)

| molecule | property | value-units | qualifier-symbol | endpoint-value |
| --- | --- | --- | --- | --- |
| COc1ccc2c(c1)[C@]13CCCC[C@@H]1[C@H](C2)N(C)CC3 [dextromethorphan, dextromethorphan hydrobromide] | Ki | nM | > | 10000 |
| CCCN(CCC)CCc1ccc(OC)c(OCCc2ccccc2)c1 | Ki | nM | = | 36.2 |
| CC(C)=CCN1CC[C@]2(C)c3cc(O)ccc3C[C@H]1[C@H]2C [(+)-pentazocine, (+)-Pentazocine] | Ki | nM | = | 1070 |
| C[C@@H]1CN(CCCn2c3ccccc3c3ccccc32)C[C@H](C)N1 [rimcazole, rimcazole dihydrochloride monohydrate] | Ki | nM | = | 719 |
| CC(=O)[C@H]1CC[C@H]2[C@@H]3CCC4=CC(=O)CC[C@]4(C)[C@H]3CC[C@]12C | Ki | nM | > | 10000 |
